Value source: ChEMBL document CHEMBL4396966

Molecular target: Androgen receptor (Homo sapiens) (UniProt P10275)
Sequence (whole entry): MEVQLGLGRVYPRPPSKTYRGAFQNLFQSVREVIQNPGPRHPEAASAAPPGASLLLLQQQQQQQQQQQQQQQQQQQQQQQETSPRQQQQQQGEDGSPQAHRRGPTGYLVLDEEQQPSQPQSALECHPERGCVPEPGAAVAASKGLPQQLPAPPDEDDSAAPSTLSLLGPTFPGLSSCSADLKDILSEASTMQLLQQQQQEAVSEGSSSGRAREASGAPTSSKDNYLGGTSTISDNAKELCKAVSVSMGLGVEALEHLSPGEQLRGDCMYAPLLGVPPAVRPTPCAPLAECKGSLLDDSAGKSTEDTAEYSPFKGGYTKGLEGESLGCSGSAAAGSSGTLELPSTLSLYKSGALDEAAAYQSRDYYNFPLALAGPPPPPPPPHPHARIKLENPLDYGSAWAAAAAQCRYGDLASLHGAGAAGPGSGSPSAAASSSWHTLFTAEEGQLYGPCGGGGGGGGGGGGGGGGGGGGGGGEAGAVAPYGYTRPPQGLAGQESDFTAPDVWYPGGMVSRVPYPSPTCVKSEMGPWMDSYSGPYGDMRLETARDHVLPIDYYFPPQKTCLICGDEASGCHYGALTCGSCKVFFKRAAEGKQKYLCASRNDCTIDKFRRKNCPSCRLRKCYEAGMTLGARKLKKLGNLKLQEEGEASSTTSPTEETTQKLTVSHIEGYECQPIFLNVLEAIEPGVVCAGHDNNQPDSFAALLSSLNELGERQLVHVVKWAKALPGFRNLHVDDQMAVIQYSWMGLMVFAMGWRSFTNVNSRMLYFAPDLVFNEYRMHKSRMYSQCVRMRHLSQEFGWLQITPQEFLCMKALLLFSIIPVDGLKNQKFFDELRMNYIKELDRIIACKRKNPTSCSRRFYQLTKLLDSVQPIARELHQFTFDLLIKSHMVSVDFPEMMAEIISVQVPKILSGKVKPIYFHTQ
Details: at 10 µM
Quantity measured: inhibition

Input smiles: COc1ccc(N2CCN(c3cc(=O)oc4c3ccc3ccccc34)CC2)cc1
inhibition: 59.1%
//
Input smiles: O=c1cc(N2CCN(c3ccccc3)CC2)c2ccc3ccccc3c2o1
inhibition: 51.2%
//
Input smiles: O=c1cc(N2CCN(c3ccccn3)CC2)c2ccc3ccccc3c2o1
inhibition: 54.5%
//
Input smiles: O=c1cc(N2CCN(C(c3ccc(F)cc3)c3ccc(F)cc3)CC2)c2ccc3ccccc3c2o1
inhibition: 70.3%
//
Input smiles: O=c1cc(N2CCN(c3ccc(F)cc3)CC2)c2ccc3ccccc3c2o1
inhibition: 43.5%

Now consider the entry below.
Query :: Please look up its inhibition: `O=c1cc(N2CCN(Cc3ccccc3)CC2)c2ccc3ccccc3c2o1`
Result :: 72.1%
